- Method: Drug concentration at steady state in human at 0.35 mg, po QD after 24 hrs
- Type: ADME, organism-based
- Measurement Context: in vivo, read-out: Css

| Smiles Structure | concentration at 24 h, nM |
| --- | --- |
| C#C[C@@]1(OC(C)=O)CC[C@H]2[C@@H]3CCC4=CC(=O)CC[C@@H]4[C@H]3CC[C@@]21C | 21 |

* * *

- Target Or System: ATP-binding cassette sub-family C member 3 (Homo sapiens, UniProt O15438)
- Sequence (O15438 whole entry): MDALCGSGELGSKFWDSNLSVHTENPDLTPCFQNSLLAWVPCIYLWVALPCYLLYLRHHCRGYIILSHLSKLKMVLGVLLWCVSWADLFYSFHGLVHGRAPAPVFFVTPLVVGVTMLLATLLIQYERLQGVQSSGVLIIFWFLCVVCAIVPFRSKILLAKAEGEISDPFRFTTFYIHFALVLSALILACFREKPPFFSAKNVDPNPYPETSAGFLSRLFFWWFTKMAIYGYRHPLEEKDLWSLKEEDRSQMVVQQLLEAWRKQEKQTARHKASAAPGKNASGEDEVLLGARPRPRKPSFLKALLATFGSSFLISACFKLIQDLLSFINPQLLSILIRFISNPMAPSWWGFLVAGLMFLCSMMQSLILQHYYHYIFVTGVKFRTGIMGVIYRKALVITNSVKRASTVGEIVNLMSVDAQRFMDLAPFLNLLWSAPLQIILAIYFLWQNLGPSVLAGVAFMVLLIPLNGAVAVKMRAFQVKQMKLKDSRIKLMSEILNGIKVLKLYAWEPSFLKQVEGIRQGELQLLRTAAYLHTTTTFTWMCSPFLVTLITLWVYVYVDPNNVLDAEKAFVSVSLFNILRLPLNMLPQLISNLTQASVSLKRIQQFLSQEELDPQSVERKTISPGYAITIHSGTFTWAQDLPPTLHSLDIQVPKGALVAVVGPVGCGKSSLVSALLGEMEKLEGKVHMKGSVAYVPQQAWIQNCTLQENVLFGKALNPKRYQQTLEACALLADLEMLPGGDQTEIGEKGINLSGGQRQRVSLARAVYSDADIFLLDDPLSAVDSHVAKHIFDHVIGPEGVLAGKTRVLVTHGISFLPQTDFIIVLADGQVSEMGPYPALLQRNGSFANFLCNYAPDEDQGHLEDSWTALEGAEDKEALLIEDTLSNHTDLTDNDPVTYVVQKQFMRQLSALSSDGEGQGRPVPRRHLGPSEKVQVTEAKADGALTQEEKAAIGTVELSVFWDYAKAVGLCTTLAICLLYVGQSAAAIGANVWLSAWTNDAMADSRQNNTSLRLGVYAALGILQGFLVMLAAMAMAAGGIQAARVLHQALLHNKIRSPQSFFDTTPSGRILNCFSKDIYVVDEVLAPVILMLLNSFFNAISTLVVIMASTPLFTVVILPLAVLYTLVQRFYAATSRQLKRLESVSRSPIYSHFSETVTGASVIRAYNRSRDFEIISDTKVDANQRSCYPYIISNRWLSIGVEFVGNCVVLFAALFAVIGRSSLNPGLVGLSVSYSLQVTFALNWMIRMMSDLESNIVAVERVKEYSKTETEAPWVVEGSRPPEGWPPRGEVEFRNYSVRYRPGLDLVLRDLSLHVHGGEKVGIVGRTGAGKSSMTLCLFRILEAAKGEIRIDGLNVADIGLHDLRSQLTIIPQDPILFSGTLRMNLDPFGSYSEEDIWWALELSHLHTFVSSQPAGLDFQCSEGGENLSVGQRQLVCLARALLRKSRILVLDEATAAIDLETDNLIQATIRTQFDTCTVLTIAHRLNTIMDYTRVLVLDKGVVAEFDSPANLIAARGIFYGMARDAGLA
- Method: Inhibition of human MRP3 overexpressed in Sf9 insect cell membrane vesicles assessed as uptake of [3H]-estradiol-17beta-D-glucuronide in presence of ATP and GSH measured after 10 mins by membrane vesicle transport assay
pIC50: −log10 of the molar value. Structures can show the parent of a compound that is named as a salt.

| Compound | pIC50 |
| --- | --- |
| CC(=O)SCC(Cc1ccccc1)C(=O)NCC(=O)OCc1ccccc1 (centres undefined) | 4.00 |
| COCCc1ccc(OCC(O)CNC(C)C)cc1 (centres undefined) | < 3.88 |
| CC[C@@]1(O)C(=O)OCc2c1cc1n(c2=O)Cc2cc3ccccc3nc2-1 | < 3.88 |
| Nc1cc(N2CCCCC2)nc(N)[n+]1[O-] | < 3.88 |
| C[C@@H]1CN(c2c(F)c(N)c3c(=O)c(C(=O)O)cn(C4CC4)c3c2F)C[C@H](C)N1 | < 3.88 |
| O=NN(CCCl)C(=O)NCCCl | < 3.88 |
| CC(C)n1c(/C=C/C(O)CC(O)CC(=O)O)c(-c2ccc(F)cc2)c2ccccc21 (centres undefined) | 4.24 |
| Cc1cc(NS(=O)(=O)c2ccc(N)cc2)no1 | < 3.88 |
| CNCCC(Oc1ccc(C(F)(F)F)cc1)c1ccccc1 (centres undefined) | < 3.88 |
| COC[C@H]1OC(=O)c2coc3c2[C@@]1(C)C1=C(C3=O)[C@@H]2CCC(=O)[C@@]2(C)C[C@H]1OC(C)=O | < 3.88 |
| CC(C)c1ccc2oc3nc(N)c(C(=O)O)cc3c(=O)c2c1 | < 3.88 |
| CN(C)CCCN1c2ccccc2CCc2ccc(Cl)cc21 | < 3.88 |
| NC(=O)N1c2ccccc2C=Cc2ccccc21 [CARBAMAZEPINE] | < 3.88 |
| CC(=O)OCC(=O)[C@@]1(O)[C@H](OC(C)=O)C[C@H]2[C@@H]3CCC4=CC(=O)C=C[C@]4(C)[C@@]3(F)[C@@H](O)C[C@@]21C [TRIAMCINOLONE DIACETATE] | < 3.88 |
| CCOC(=O)C1=C(COCCN)NC(C)=C(C(=O)OC)C1c1ccccc1Cl (centres undefined) | < 3.88 |
| CN(C)C(=O)Oc1cccc([N+](C)(C)C)c1 | < 3.88 |
| CO/N=C(\C(=O)N[C@@H]1C(=O)N2C(C(=O)OC(C)OC(C)=O)=C(COC(N)=O)CS[C@H]12)c1ccco1 (some centres undefined) | < 3.88 |
| COc1cc(C)c(/C=C/C(C)=C/C=C/C(C)=C/C(=O)O)c(C)c1C | < 3.88 |
| CC(/C=C1\SC(=S)N(CC(=O)O)C1=O)=C\c1ccccc1 | 4.34 |
| CCN1CCC[C@H]1CNC(=O)c1c(OC)ccc(Br)c1OC [REMOXIPRIDE] | < 3.88 |
| CCN(CC)C(=O)c1cccnc1 [NIKETHAMIDE] | < 3.88 |
| Cc1c(C)c2c(c(C)c1O)CCC(C)(COc1ccc(CC3SC(=O)NC3=O)cc1)O2 (centres undefined) | 4.51 |
| CC(C)(C)NC(=O)[C@H]1CC[C@H]2[C@@H]3CC[C@H]4NC(=O)C=C[C@]4(C)[C@H]3CC[C@]12C [FINASTERIDE] | < 3.88 |
| CC[C@]1(O)C[C@@H]2CN(CCc3c([nH]c4ccccc34)[C@@](C(=O)OC)(c3cc4c(cc3OC)N(C)[C@H]3[C@@](O)(C(=O)OC)[C@H](OC(C)=O)[C@]5(CC)C=CCN6CC[C@]43[C@@H]65)C2)C1 | < 3.88 |
| CCCSc1ccc2nc(NC(=O)OC)[nH]c2c1 | < 3.88 |
| CO[C@H]1/C=C/O[C@@]2(C)Oc3c(C)c(O)c4c(O)c(c5c(nc6cc(C)ccn65)c4c3C2=O)NC(=O)/C(C)=C\C=C\[C@H](C)[C@H](O)[C@@H](C)[C@@H](O)[C@@H](C)[C@H](OC(C)=O)[C@@H]1C | 4.19 |
| NCc1ccc(S(N)(=O)=O)cc1 [MAFENIDE ACETATE] | < 3.88 |
| CS(=O)(=O)CCNCc1ccc(-c2ccc3ncnc(Nc4ccc(OCc5cccc(F)c5)c(Cl)c4)c3c2)o1.Cc1ccc(S(=O)(=O)O)cc1 | < 3.88 |
| Nc1ccn([C@@H]2O[C@H](CO)[C@@H](O)C2(F)F)c(=O)n1 [GEMCITABINE HYDROCHLORIDE] | < 3.88 |
| Nc1nc(N)c2nc(-c3ccccc3)c(N)nc2n1 | < 3.88 |
| O=C(C1CCCCC1)N1CC(=O)N2CCc3ccccc3C2C1 (centres undefined) | < 3.88 |
| CN(C(=O)c1c(O)c2ccccc2n(C)c1=O)c1ccccc1 | < 3.88 |
| COc1ccc(Cl)cc1[C@]1(F)C(=O)Nc2cc(C(F)(F)F)ccc21 | < 3.88 |
| Cc1cc2c(cc1CC(=O)c1sccc1S(=O)(=O)Nc1onc(C)c1Cl)OCO2 | 4.34 |
